test system: SF-295; assay: NCI tumour cell line growth inhibition, 48 h
Active and inactive are the calls of the source. No stated cut-off is given here; in the data, active = GI50 up to about 1.1 µM and inactive = higher.
Give one outcome, nothing more. List: YES for active, NO for inactive

CC(N1CCOCC1)C(O)(c1ccccc1)c1ccccn1 (stereo not drawn)
NO
CCc1nn(S(=O)(=O)c2ccc(C)cc2)c2c1CS(=O)(=O)CC2
NO
O=C1CC(=O)NC(NN2C(=O)/C(=C/c3ccccc3)N=C2c2ccccc2)=N1
NO

Test call for this molecule, please: COc1ccc(C(O)CC(O)(C(F)(F)F)C(F)(F)F)cc1 (stereo not drawn)
NO

Now give it for COc1cc(C2C3=C(COC3=O)Oc3cc4c(cc32)OCO4)cc(OC)c1OC (stereo not drawn) too.
YES

---

test system: RXF 393; assay: NCI tumour cell line growth inhibition, 48 h
Calls of active or inactive are those of the source. Cut-off read from the data, not from the text of the source: active = GI50 up to about 1.1 µM and inactive = higher.
Give one outcome, nothing more. List: yes (active), no (inactive)

Examples with answers:
CN(C)C1C(=O)C(C(N)=O)=C(O)C2(O)C(O)=C3C(=O)c4c(O)cccc4C(C)(O)C3CC12 (stereo not given)
no
CC1OC(OCC2OC(Oc3c(-c4ccc(O)cc4)oc4cc(O)cc(O)c4c3=O)C(OC3OC(C)C(O)C(O)C3O)C(O)C2O)C(O)C(O)C1O (stereo not given)
no

Test call for this molecule, please: COC(=O)C1CC(C=O)=C(SC)N1 (stereo not given)
no

Now give it for Cc1[nH]c(O)nc1C(=O)c1ccc(-n2ccnc2)cc1 too.
no

Now give it for CS(=O)(=O)OCCN1CCN(C(=O)c2ccc(Cl)c3c(Nc4ccc(S(=O)(=O)N=C(N)N)cc4)c4ccccc4nc23)CC1 too.
no

Now give it for COC(=O)C1=C(O)C(C(=O)OC)[C@]2(O)[C@H](C(=O)OC)[C@H]1C[C@@H](c1ccccc1OC)[C@H]2C(=O)OC (stereo not given in full) too.
no

---

system: HT-29; assay: NCI tumour cell line growth inhibition, 48 h
Activity calls are given as the source filed them. Cut-off read from the data, not from the text of the source: active = GI50 up to about 1.1 µM and inactive = higher.
Give one outcome, nothing more. List: 1 for active, -1 for inactive

Examples with answers:
CCN(CC)C(=O)Cc1c(C(=O)N(CC)CC)c(=O)nc2sccn12
-1
CCCCOP(=O)(OCCCC)/C(C#N)=C/c1ccc(C)o1
-1

Test call for this compound, please: C[Si](C)(OCCS(=O)(=O)O)OC(=C1S(=O)(=O)OCCOS1(=O)=O)c1cccc2ccccc12
-1

Now give it for NC(=O)[N+](=CC(=S)Nc1ccccc1Cl)C(N)=O too.
-1

Now give it for COc1c(C(CC(C)C)OC(C)=O)ccc2c1C(=O)OCc1cc(C)cc(O)c1O2 (stereo not drawn) too.
-1

Now give it for C/C=C/C(O)P1(=O)N(Cc2ccccc2)[C@@H]2CCCC[C@H]2N1Cc1ccccc1 (stereo partly drawn) too.
-1

Now give it for COc1ccc2c(CCNC(=O)/C=C/c3ccccc3)c(C(C)=O)[nH]c2c1[N+](=O)[O-] too.
-1

Now give it for C[Si](C)(C)CNC(=O)OCc1ccccc1 too.
-1

Now give it for CC(=O)Nc1ccc2c3c(cc(O)c2c1)N(C(=O)CCCC(=O)N1CC(CCl)c2c1cc(O)c1cc(NC(C)=O)ccc21)CC3CCl (stereo not drawn) too.
1

Now give it for O=C1c2ccccc2C(=O)c2c(O)ccc(O)c21 [QUINIZARIN] too.
-1

Now give it for CCOC(=O)c1csc(NC(=O)CCN2CCOCC2)n1 too.
-1

Now give it for CN1C(=O)CN2C(Cl)(Cl)C2(c2ccccc2F)c2cc([N+](=O)[O-])ccc21 (stereo not drawn) too.
-1

Now give it for Cc1nc2c(sc3nc4c(cc32)CCC4)c(=O)o1 too.
-1

Now give it for C=C1CCC2[C@@H](CCC3[C@]2(C)CCC[C@]3(C)C(=O)OC)C1CC=O (stereo partly drawn) too.
-1

Now give it for COc1cc(C(CC(OC)OC)=C(C#N)C#N)cc(OC)c1OC too.
-1
